biological target: human M1 receptor (hCHRM1) (Homo sapiens); construct: expressed in transfected cells; experiment: Measurement of M1 receptor positive allosteric modulator (M1PAM) activity, Ca2+ fluorescence by FDSS/μ cell (Experimental Example 2); type: cell-based; conditions: inflection point of concentration-dependent curve, in presence of acetylcholine at EC20 (0.8-1.0 nM), CHO-K1 cells expressing hCHRM1, read-out: IP value
Counter-ions that a name gives are not always drawn.
attribute.measured: EC50 (nM)

Use the examples below as a reference point.
>  <molecule>
C=Cc1ccc(Cc2cc3c(c(C)c2C)OCN([C@H]2COCC[C@@H]2O)C3=O)cn1 [Example 110]

>  <EC50 (nM)>
4.8

$$$$
>  <molecule>
Cc1cc(-c2ccc(Cc3cc4c(c(F)c3C)OCN([C@H]3CCC[C@@H]3O)C4=O)cc2)cnn1 [Example 105, hydrochloride]

>  <EC50 (nM)>
5.6

$$$$
>  <molecule>
Cc1c(Cc2ccc(-c3ccn(C)n3)nc2)cc2c(c1F)OCN([C@H]1CCCC[C@@H]1O)C2=O [Example 92]

>  <EC50 (nM)>
3.4

$$$$

A. Cc1c(Cc2ccc(-n3cccn3)nc2)cc2c(c1C)OCN([C@H]1COCC[C@@H]1O)C2=O [Example 98]
B. Cc1cc2c(cc1Cc1ccc(Cl)nc1)C(=O)N([C@H]1CCCC[C@@H]1O)CO2 [Example 140]
For the two items A and B , which reports the higher EC50 value? Answer with the label corresponding to your selection. B
(B: 10 nM, A: 4.9 nM)

A. Cc1c(Cc2ccc3nn(C)cc3c2)cc2c(c1C)OCN([C@H]1COCC[C@@H]1O)C2=O [Example 116]
B. CCn1ccc(-c2ccc(Cc3cc4c(c(F)c3C)OCN([C@H]3CCC[C@@H]3O)C4=O)cn2)n1 [Example 91]
Identify the item whose EC50 is the smaller number: A or B Identify your selection by its label. B

* * *

molecular target: human M1 receptor (hCHRM1) (Homo sapiens); construct: expressed in transfected cells; experiment: Measurement of M1 receptor positive allosteric modulator (M1PAM) activity, Ca2+ fluorescence by FLIPRtetra (Experimental Example 1); assay type: cell-based; details: inflection point of concentration-dependent curve, in presence of acetylcholine at EC20 (0.8-1.0 nM), CHO-K1 cells expressing hCHRM1, read-out: IP value
attribute.measured: EC50 (nM)

Example entries and their recorded answers appear below.
>  <compound>
Cc1cc2c(cc1Cc1ccc(C#N)cc1)C(=O)N([C@H]1CCC[C@@H]1O)CO2 [Example 67]

>  <EC50, nM>
46

$$$$
>  <compound>
Cc1c(Cc2ccc(Cl)nc2)cc2c(c1C)OCN([C@H]1COCC[C@@H]1O)C2=O [Example 10]

>  <EC50, nM>
9.1

$$$$

I. O=C1c2cc(Cc3ccc(Cl)nc3)c3ccccc3c2OCN1CC1CCCO1 (stereo not shown) [Example 76]
II. Cc1c(Cc2ccc(-n3cccn3)nc2)cc2c(c1Cl)OCN([C@H]1CCC[C@@H]1O)C2=O (relative stereo) [Example 51]
Given the listed items, does I or II have the lesser reported EC50? State the label of the item chosen. II

* * *

molecular target: human M1 receptor (hCHRM1) (Homo sapiens, UniProt P11229); construct: expressed in transfected cells; experiment: Measurement of M1 receptor positive allosteric modulator (M1PAM) activity, Ca2+ fluorescence by FLIPRtetra (Experimental Example 1); format: cell-based; details: 10 μM test compound, 100% = acetylcholine 1 μM, 0% = DMSO
Sequence (P11229 whole entry): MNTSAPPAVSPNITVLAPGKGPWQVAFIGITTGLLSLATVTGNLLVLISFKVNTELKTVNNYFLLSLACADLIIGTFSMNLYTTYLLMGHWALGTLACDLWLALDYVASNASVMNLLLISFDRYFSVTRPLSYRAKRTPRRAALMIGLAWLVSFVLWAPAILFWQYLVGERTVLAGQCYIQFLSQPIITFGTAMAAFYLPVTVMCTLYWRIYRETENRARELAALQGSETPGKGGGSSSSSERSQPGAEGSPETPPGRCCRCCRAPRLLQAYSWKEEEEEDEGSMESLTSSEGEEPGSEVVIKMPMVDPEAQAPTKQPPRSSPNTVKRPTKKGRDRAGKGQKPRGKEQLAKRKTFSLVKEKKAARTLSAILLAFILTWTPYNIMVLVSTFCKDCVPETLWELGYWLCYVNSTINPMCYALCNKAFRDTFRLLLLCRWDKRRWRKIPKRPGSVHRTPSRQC
attribute.measured: activity (%) at 10 μM

>  <compound>
Cc1ccc(Cc2cc3c(c(Cl)c2C)OCN(CC2CCCO2)C3=O)cn1 (stereo not drawn) [Example 84]

>  <activity (%) at 10 μM>
93

$$$$
>  <compound>
COc1ccc(Cc2cc3c(cc2C)OCN([C@H]2CCC[C@@H]2O)C3=O)cc1 [Example 73]

>  <activity (%) at 10 μM>
97

$$$$
>  <compound>
Cn1cc(-c2ccc(Cc3ccc4c(c3)C(=O)N(c3ccccc3F)CO4)cn2)cn1 [Example 88]

>  <activity (%) at 10 μM>
115

$$$$
>  <compound>
Cc1ccc(Cc2cc3c(c(Cl)c2C)OCN([C@H]2CCCC[C@@H]2O)C3=O)cn1 [Example 2]

>  <activity (%) at 10 μM>
106

$$$$
>  <compound>
O=C1c2cc(Cc3ccc(Cl)nc3)c3ccccc3c2OCN1[C@H]1CCC[C@@H]1O [Example 43]

>  <activity (%) at 10 μM>
93

$$$$
>  <compound>
Cc1c(Cc2ccc(-c3ccn(C)n3)nc2)cc2c(c1C)OCN([C@H]1COCC[C@@H]1O)C2=O [Example 37]

>  <activity (%) at 10 μM>
109

$$$$
>  <compound>
Cc1c(Cc2ccc(Cl)nc2)cc2c(c1C)OCN([C@H]1CCC[C@@H]1O)C2=O [Example 8]

>  <activity (%) at 10 μM>
105

$$$$
>  <compound>
Cc1c(Cc2ccc(-n3cccn3)cc2)cc2c(c1F)OCN([C@H]1CCC[C@@H]1O)C2=O (relative stereo) [Example 30]

>  <activity (%) at 10 μM>
102

$$$$
>  <compound>
O=C1c2cc(CN3CC[S+]([O-])CC3)c3ccccc3c2OCN1[C@H]1CCC[C@@H]1O [Example 60]

>  <activity (%) at 10 μM>
105

$$$$
